Target: T1, recombinant hPEPT1 receptor domain (human PEPT1, amino acid residues 391-571), His-tag fusion protein (human) (UniProt P46059)
T1 sequence: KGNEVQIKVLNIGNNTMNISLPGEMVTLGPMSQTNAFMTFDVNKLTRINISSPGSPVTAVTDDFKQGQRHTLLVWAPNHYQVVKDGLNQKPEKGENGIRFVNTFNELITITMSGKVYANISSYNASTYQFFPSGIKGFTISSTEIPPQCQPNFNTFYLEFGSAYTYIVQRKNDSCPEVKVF
Assay: phage ELISA on coated hPEPT1
Ends that are not written are not given here.

>  <binder>
SSKVSSPRDPTVPRKGGNVDYGCGHRSSARMPTSALSSITKCYT (peptide, not shown: large carriers, cysteine pairing not given here; also: displayed as N-terminal pIII fusion on M13 phage) [phage PAX38]

>  <unit_symbol>
OD 650 nm

>  <OD>
0.292

$$$$
>  <binder>
RWPSVGYKGNGSDTIDVHSNDASTKRSLIYNHRRPLFP (peptide, not shown: large carriers) [phage PAX9]

>  <unit_symbol>
OD 650 nm

>  <OD>
0.312

$$$$
>  <binder>
RGSTGTAGGERSGVLNLHTRDNASGSGFKPWYPSNRGHK (peptide, not shown: large carriers, also: displayed as N-terminal pIII fusion on M13 phage) [phage 5PAX5]

>  <unit_symbol>
OD 650 nm

>  <OD>
0.15

$$$$
>  <binder>
SYCRVKGGGEGGHTDSNLARSGCGKVARTSRLQHINPRATPPSR (peptide, not shown: large carriers) [phage PAX15]

>  <unit_symbol>
OD 650 nm

>  <OD>
0.301

$$$$
>  <binder>
RWGWERSPSDYDSDMDLGARRYATRTHRAPPRVLKAPLP (peptide, not shown: large carriers, also: displayed as N-terminal pIII fusion on M13 phage) [phage 5PAX7]

>  <unit_symbol>
OD 650 nm

>  <OD>
0.171

$$$$
